Target: CDK2/Cyclin E1 full length (Homo sapiens (Human), UniProt P24941)
Experiment: CDK2/Cyclin E1 Full Length ADP-Glo Kinase Assay
Format: biochemical
Conditions: 20 uM ATP, read-out: CDK2/ CyclinE1 IC50
pIC50: −log10 of the molar value.
property: pIC50

Worked cases, pIC50 given:
molecule: CN1CC2(CC(n3cc(Nc4ncc5cc(C(F)F)cc(N6CCC(C#N)(C7CC7)C6)c5n4)cn3)C2)C1 (stereo not drawn)
pIC50: 6.30 to 6.70
//
molecule: CN1CC2(CCN(c3cc(C(F)F)cc4cnc(NC5CCN(c6ncc(C7CC7)cn6)CC5)nc34)C2)C1
pIC50: 5.70 to 6.30
//
molecule: CN1Cc2ccc(Nc3ncc4cc(C(F)F)cc(N5CC6(C5)CN(S(C)(=O)=O)C6)c4n3)cc2C1
pIC50: > 6.70
//
molecule: COC1CC2(C1)CC(c1cc(C(F)F)cc3cnc(NC4CCN(S(C)(=O)=O)CC4)nc13)C2 (stereo not drawn)
pIC50: > 6.70
//
molecule: O[C@@H]1COCC[C@H]1Nc1ncc2cc(C(F)F)cc(N3CC(F)(F)C4(CNC4)C3)c2n1 (racemic)
pIC50: > 6.70
//
molecule: O=S(=O)(N1CCC(Nc2ncc3cc(C(F)F)cc(N4CC5(CCNC5)C4)c3n2)CC1)C1(C(F)F)CC1
pIC50: > 6.70

In the following, a different molecule is considered.
Noted for CCN1CC2(C1)CN(c1ccc(Nc3ncc4cccc(N5CCC6(CCN(C(C)=O)C6)C5)c4n3)nc1)C2 (stereo not drawn) : its pIC50 reads < 5.70
